# Lookup of reported melting point keyed by entry

As a guide, the following entries are already answered.
[
  {
    "compound": "CNC(=O)c1ccc(Oc2ccc3c(c2)CCC2(CCN(C4CCC4)CC2)O3)nc1",
    "melting point": "245 to 247 °C"
  },
  {
    "compound": "Cc1cc(C(N)=O)cc(C)c1-c1ccc2c(c1)COC1(CCN(C3CCC3)CC1)O2",
    "melting point": "156 to 158 °C"
  },
  {
    "compound": "c1c[nH]c(-c2ccc3c(c2)COC2(CCN(C4CCC4)CC2)O3)c1",
    "melting point": "179 to 180 °C"
  }
]

Consider the compound `CC(C)NC(=O)c1ccc(-c2ccc3c(c2)COC2(CCN(C4CCC4)CC2)O3)cc1Cl` and give its measured melting point.
186 to 187.5 °C

Consider the compound `CNC(=O)c1cc(Oc2ccc3c(c2)CCC2(CCN(C4CCC4)CC2)O3)ccn1` and give its measured melting point.
255 to 257 °C

Consider the compound `Cc1c(-c2ccc3c(c2)COC2(CCN(C4CCC4)CC2)O3)cn(CC(F)(F)F)c(=O)c1C` and give its measured melting point.
96 to 98 °C

Consider the compound `CC(=O)N[C@H]1CCN(c2ccc3c(c2)COC2(CCN(C4CCC4)CC2)O3)C1` and give its measured melting point.
77.9 to 80 °C

Consider the compound `O=C(c1ccccc1Nc1ccc2c(c1)COC1(CCN(C3CCC3)CC1)O2)N1CCOCC1` and give its measured melting point.
60 to 63 °C

Consider the compound `CCN(C)C(=O)c1ccc(-c2ccc3c(c2)COC2(CCN(C4CCC4)CC2)O3)cc1` and give its measured melting point.
140 to 141 °C

---

# Lookup of reported melting point keyed by entry

As a guide, the following entries are already answered.
[
  {
    "compound": "CNC(=O)C1CCN(c2ccc3c(c2)CCC2(CCN(C4CCC4)CC2)O3)CC1 [Example 396]",
    "melting point": "264 to 267 °C"
  },
  {
    "compound": "CS(=O)(=O)c1ccc(N2CCN(c3ccc4c(c3)CCC3(CCN(C5CCC5)CC3)O4)CC2)nc1 [Example 383]",
    "melting point": "258 to 260 °C"
  },
  {
    "compound": "COc1ccc(-c2ccc3c(c2)CCC2(CCN(C4CCC4)CC2)O3)c(C)n1 [Example 797]",
    "melting point": "72 to 73 °C"
  },
  {
    "compound": "O=c1ccc(-c2ccc3c(c2)COC2(CCN(C4CCOC4)CC2)O3)c[nH]1 (stereo not shown) [Example 729]",
    "melting point": "222 to 226 °C"
  },
  {
    "compound": "O=C(NC[C@H]1CCCO1)c1ccc(-c2ccc3c(c2)COC2(CCN(C4CCC4)CC2)O3)cc1Cl [Example 579]",
    "melting point": "155 to 157 °C"
  }
]

Consider the compound O=C(NC1CCOCC1)c1ccc(-c2ccc3c(c2)COC2(CCN(C4CCC4)CC2)O3)s1 [Example 631] and give its measured melting point.
209 to 211 °C

Consider the compound CN(C)C(=O)C1CC(N2CCC3(CC2)OCc2cc(-c4ccc(=O)[nH]c4)ccc2O3)C1 (stereo not shown) [Example 735] and give its measured melting point.
247 to 249 °C

Consider the compound C(=C\c1ccc2c(c1)CCC1(CCN(C3CCC3)CC1)O2)/c1ccc(OCc2ccccc2)nc1 [Example 537] and give its measured melting point.
236 to 238 °C

Consider the compound COC1(c2ccc3c(c2)COC2(CCN(C4CCC4)CC2)O3)CCC1 [Example 559] and give its measured melting point.
< 50 °C

Consider the compound O=C(NC1CCOCC1)c1ccc(COc2ccc3c(c2)CCC2(CCN(C4CCC4)CC2)O3)cc1 [Example 647] and give its measured melting point.
174 to 176 °C

Consider the compound Cc1noc(C)c1C(=O)N1CCN(c2ccc3c(c2)COC2(CCN(C4CCC4)CC2)O3)C(=O)C1 [Example 738] and give its measured melting point.
103 to 106 °C

Consider the compound CNC(=O)c1ccc(-c2ccc3c(c2)CCC2(CCN(C4CCC4)CC2)O3)nc1 [Example 595] and give its measured melting point.
192 to 194 °C

Consider the compound CC(=O)N[C@@H]1CCN(c2ccc3c(c2)COC2(CCN(C4CCC4)CC2)O3)C1 [Example 343] and give its measured melting point.
77.9 to 79.9 °C

Consider the compound CCc1nc(OC)ccc1-c1ccc2c(c1)COC1(CCN(C3CCC3)CC1)O2 [Example 789] and give its measured melting point.
59 to 61 °C

Consider the compound O=c1ccc(-c2ccc3c(c2)COC2(CCN(C4CCC4)CC2)O3)cn1CC(F)F [Example 555] and give its measured melting point.
65 to 70 °C

Consider the compound CNC(=O)c1ccc(-c2ccc3c(c2)CCC2(CCN(C4CCC4)CC2)O3)cc1C#N [Example 246] and give its measured melting point.
80 to 82 °C
